System: FLT-3 kinase (Homo sapiens, UniProt P36888)
Construct: human FLT-3 (Arg571-Ser993); GST (N); purchased Cell Signaling Technology HTScan FLT-3 Kinase Assay Kit; host or cells: baculovirus expression system
Sequence (P36888 571-993): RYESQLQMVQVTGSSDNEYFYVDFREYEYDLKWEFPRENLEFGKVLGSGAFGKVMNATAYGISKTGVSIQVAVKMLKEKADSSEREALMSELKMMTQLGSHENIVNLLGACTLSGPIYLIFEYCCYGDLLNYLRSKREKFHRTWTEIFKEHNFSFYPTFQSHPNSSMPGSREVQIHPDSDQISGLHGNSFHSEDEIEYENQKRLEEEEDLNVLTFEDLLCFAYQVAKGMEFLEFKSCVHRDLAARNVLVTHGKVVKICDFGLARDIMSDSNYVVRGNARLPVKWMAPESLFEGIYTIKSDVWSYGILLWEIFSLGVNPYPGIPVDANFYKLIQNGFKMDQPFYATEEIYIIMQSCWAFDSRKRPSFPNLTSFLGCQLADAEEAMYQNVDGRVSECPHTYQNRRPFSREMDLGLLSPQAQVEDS
Measurement notes: FLT-3 kinase DELFIA assay (HTScan FLT-3 Kinase Assay Kit)
Assay type: biochemical
Condition info: 1 uM compound, 20 uM ATP
Result type: inhibition at 1 µM (%)
Please reply with the bare figure in % and do not write the unit itself.

Asked: Tell me the measured inhibition at 1 µM of O=c1[nH]c2cccccc-2c1-c1nc2cc(N3CCN(c4ncccn4)CC3)ccc2[nH]1 [Compound B68] , please.
Given back: 80.7

Further cases:
Asked: Tell me the measured inhibition at 1 µM of O=c1[nH]c2cccccc-2c1-c1nc2cc(N3CCCN(Cc4cccnc4)CC3)ccc2[nH]1 [Compound B87] , please.
Given back: 91.6

Asked: Tell me the measured inhibition at 1 µM of O=c1[nH]c2cccccc-2c1-c1nc2cc(N3CCN(c4c(F)cncc4F)CC3)ccc2[nH]1 [Compound B61] , please.
Given back: 74.3

Asked: Tell me the measured inhibition at 1 µM of CN1CCN(c2cc3nc(-c4c5cccccc-5[nH]c4=O)[nH]c3cc2F)CC1 [Compound B50] , please.
Given back: 79.6

Asked: Tell me the measured inhibition at 1 µM of O=c1[nH]c2cccccc-2c1-c1nc2cc(Cl)cnc2[nH]1 [Compound B10] , please.
Given back: 20.3

Asked: Tell me the measured inhibition at 1 µM of O=C(Nc1ccc2[nH]c(-c3c4cccccc-4[nH]c3=O)nc2c1)Nc1ccccc1C(F)(F)F [Compound B131] , please.
Given back: 7.3

Asked: Tell me the measured inhibition at 1 µM of O=C(c1ccccc1)c1ccc2[nH]c(-c3c4cccccc-4[nH]c3=O)nc2c1 [Compound B114] , please.
Given back: 16.3

Asked: Tell me the measured inhibition at 1 µM of O=c1[nH]c2cccccc-2c1-c1nc2cc(N3CCN(Cc4ccccn4)CC3)ccc2[nH]1 [Compound B49] , please.
Given back: 72.2

---

System: KDR kinase (Homo sapiens)
Construct: human VEGFR-2 (Val789-Val1356); GST (N); purchased Cell Signaling Technology HTScan VEGFR-2 Kinase Assay Kit; host or cells: baculovirus expression system
Sequence (P35968 789-1356): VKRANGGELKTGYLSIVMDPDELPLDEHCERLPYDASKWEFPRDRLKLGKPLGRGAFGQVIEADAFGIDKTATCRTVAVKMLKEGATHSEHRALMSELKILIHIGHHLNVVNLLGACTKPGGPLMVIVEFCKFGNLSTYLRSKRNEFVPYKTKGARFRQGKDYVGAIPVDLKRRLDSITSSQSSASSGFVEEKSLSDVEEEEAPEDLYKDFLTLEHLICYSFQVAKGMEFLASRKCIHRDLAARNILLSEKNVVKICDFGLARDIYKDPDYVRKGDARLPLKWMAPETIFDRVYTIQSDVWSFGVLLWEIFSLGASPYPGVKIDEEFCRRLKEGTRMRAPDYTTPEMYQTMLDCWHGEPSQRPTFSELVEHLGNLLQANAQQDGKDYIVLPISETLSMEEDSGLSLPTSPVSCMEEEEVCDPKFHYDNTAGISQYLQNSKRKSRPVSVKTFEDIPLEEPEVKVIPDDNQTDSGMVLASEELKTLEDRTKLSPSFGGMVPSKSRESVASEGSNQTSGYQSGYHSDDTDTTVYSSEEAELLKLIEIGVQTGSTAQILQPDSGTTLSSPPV
Measurement notes: KDR kinase DELFIA assay (HTScan VEGFR-2 Kinase Assay Kit)
Format: biochemical
Condition info: 0.1 uM compound, 20 uM ATP; read-out: Kinases inhibitory activities against KDR kinase, 0.1 uM
Result type: inhibition at 0.1 µM (%)
Please reply with the bare figure in % and do not write the unit itself.

Some compounds with known inhibition at 0.1 µM results, for comparison:
Asked: Tell me the measured inhibition at 0.1 µM of O=c1[nH]c2cccccc-2c1-c1nc2cc([N+](=O)[O-])ccc2[nH]1 , please.
Given back: 31.7

Asked: Tell me the measured inhibition at 0.1 µM of Nc1ccc2[nH]c(-c3c4cccccc-4[nH]c3=O)nc2c1 , please.
Given back: 29.7

Asked: Tell me the measured inhibition at 0.1 µM of O=C(O)c1ccc2[nH]c(-c3c4cccccc-4[nH]c3=O)nc2c1 , please.
Given back: 20.2

Asked: Tell me the measured inhibition at 0.1 µM of O=c1[nH]c2cccccc-2c1-c1nc2cc(O)ccc2[nH]1 , please.
Given back: 15.9

Asked: Tell me the measured inhibition at 0.1 µM of CN1CCN(c2ccc3[nH]c(-c4c5cccccc-5[nH]c4=O)nc3c2)CC1 , please.
Given back: 71.3

Further cases:
Asked: Tell me the measured inhibition at 0.1 µM of O=c1[nH]c2cccccc-2c1-c1nc2cc(C(F)(F)F)ccc2[nH]1 , please.
Given back: 14.4

Asked: Tell me the measured inhibition at 0.1 µM of O=c1[nH]c2cccccc-2c1-c1nc2cc(F)ccc2[nH]1 , please.
Given back: 78.3

Asked: Tell me the measured inhibition at 0.1 µM of O=c1[nH]c2cccccc-2c1-c1cn2ccccc2n1 , please.
Given back: 0.5

---

Each entry below lists one item and its recorded inhibition at 0.1 µM value.
System: c-KIT kinase (Homo sapiens, UniProt P10721)
Construct: human c-KIT (Thr544-Val976); GST (N); purchased Cell Signaling Technology HTScan c-KIT Kinase Assay Kit; host or cells: baculovirus expression system
Sequence (P10721 544-976): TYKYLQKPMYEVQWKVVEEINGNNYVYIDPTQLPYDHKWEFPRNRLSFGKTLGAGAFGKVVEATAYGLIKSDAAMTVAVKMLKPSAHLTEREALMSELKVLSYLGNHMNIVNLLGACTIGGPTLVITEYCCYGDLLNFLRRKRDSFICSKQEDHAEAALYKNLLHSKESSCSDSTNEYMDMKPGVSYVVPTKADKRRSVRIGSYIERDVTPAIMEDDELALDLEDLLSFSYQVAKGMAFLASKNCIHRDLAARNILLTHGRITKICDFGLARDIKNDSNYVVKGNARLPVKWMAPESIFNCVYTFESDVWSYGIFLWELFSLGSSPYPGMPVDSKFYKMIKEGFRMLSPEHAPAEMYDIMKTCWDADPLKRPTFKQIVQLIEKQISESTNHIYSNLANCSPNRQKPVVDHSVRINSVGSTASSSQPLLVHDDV
Measurement notes: c-KIT kinase DELFIA assay (HTScan c-KIT Kinase Assay Kit)
Type: biochemical
Condition info: 0.1 uM compound, 20 uM ATP
Experimental: Azaazulene Compounds of this invention were treated for their efficacy in inhibiting activities of FLT-3, c-KIT and KDR kinases by biochemical DELFIA (Dissociation Enhanced Lanthanide FIA) assays according to the procedure described below. The assays were conducted by, Division of Cell Engineering, Biomedical Engineering Research Laboratories, Industrial Technology Research Institute, Bldg. 53, 195, sec. 4, Chung Hsing Rd. Chutung, Hsinchu, Taiwan 310, R.O.C. […]
Please reply with the bare figure in % and do not write the unit itself.

Some molecules with known inhibition at 0.1 µM results, for comparison:
Asked: Tell me the measured inhibition at 0.1 µM of Nc1ncnc2[nH]c(-c3c4cccccc-4[nH]c3=O)nc12 [Compound B11] , please.
Given back: 15.1

Asked: Tell me the measured inhibition at 0.1 µM of O=c1[nH]c2cccccc-2c1-c1cn2ccccc2n1 [Compound B9] , please.
Given back: 16

Asked: Tell me the measured inhibition at 0.1 µM of O=c1[nH]c2cccccc-2c1-c1nc2cc(N3CCCN(c4ccccn4)CC3)ccc2[nH]1 [Compound B94] , please.
Given back: 12.3

Asked: Tell me the measured inhibition at 0.1 µM of O=c1[nH]c2cccccc-2c1-c1nc2cc(N3CCCN(c4ncccc4[N+](=O)[O-])CC3)ccc2[nH]1 [Compound B95] , please.
Given back: 48.3

Asked: Tell me the measured inhibition at 0.1 µM of O=C(Nc1ccc(Cl)c(C(F)(F)F)c1)Nc1ccc2[nH]c(-c3c4cccccc-4[nH]c3=O)nc2c1 [Compound B118] , please.
Given back: 66.6

Next item in the queue.
Asked: Tell me the measured inhibition at 0.1 µM of CCN(CC)CCn1c2cccccc-2c(-c2nc3ccccc3[nH]2)c1=O [Compound B1] , please.
Given back: 31.2

---

Each entry below lists one item and its recorded inhibition at 1 µM value.
System: FLT-3 kinase (Homo sapiens, UniProt P36888)
Construct: human FLT-3 (Arg571-Ser993); GST (N); purchased Cell Signaling Technology HTScan FLT-3 Kinase Assay Kit; host or cells: baculovirus expression system
Measurement notes: FLT-3 kinase DELFIA assay (HTScan FLT-3 Kinase Assay Kit)
Assay type: biochemical
Condition info: 1 uM compound, 20 uM ATP

Some compounds with known inhibition at 1 µM results, for comparison:
Asked: Tell me the measured inhibition at 1 µM of CN(C)C1CCN(c2ccc3[nH]c(-c4c5cccccc-5[nH]c4=O)nc3c2)CC1 , please.
Given back: 90.7%

Asked: Tell me the measured inhibition at 1 µM of CC(C)(C)OC(=O)Nc1ccc2[nH]c(-c3c4cccccc-4[nH]c3=O)nc2c1 , please.
Given back: 33.3%

Further cases:
Asked: Tell me the measured inhibition at 1 µM of O=C(Nc1ccc(N2CCCC2)cn1)c1ccc2[nH]c(-c3c4cccccc-4[nH]c3=O)nc2c1 , please.
Given back: 22.3%

Asked: Tell me the measured inhibition at 1 µM of CN1CCN(S(=O)(=O)c2ccc3[nH]c(-c4c5cccccc-5[nH]c4=O)nc3c2)CC1 , please.
Given back: 21.3%

---

Each entry below lists one item and its recorded inhibition at 0.1 µM value.
System: c-KIT kinase (Homo sapiens, UniProt P10721)
Construct: human c-KIT (Thr544-Val976); GST (N); purchased Cell Signaling Technology HTScan c-KIT Kinase Assay Kit; host or cells: baculovirus expression system
Measurement notes: c-KIT kinase DELFIA assay (HTScan c-KIT Kinase Assay Kit)
Assay type: biochemical
Condition info: 0.1 uM compound, 20 uM ATP
Please reply with the bare figure in % and do not write the unit itself.

Some molecules with known inhibition at 0.1 µM results, for comparison:
Asked: Tell me the measured inhibition at 0.1 µM of COc1ccc2nc(-c3c4cccccc-4[nH]c3=O)cn2c1 , please.
Given back: 20.1

Asked: Tell me the measured inhibition at 0.1 µM of C[N+]1([O-])CC[N+]([O-])(c2ccc3[nH]c(-c4c5cccccc-5[nH]c4=O)nc3c2)CC1 (stereo not drawn) , please.
Given back: 40.5

Next item in the queue.
Asked: Tell me the measured inhibition at 0.1 µM of Cc1cc(N2CCCN(c3ccc4[nH]c(-c5c6cccccc-6[nH]c5=O)nc4c3)CC2)nc(N(C)C)n1 , please.
Given back: 40.1

Reference for the values: patent US8492374B2
